Values from patent US4115453A

- System: gastric secretion
- assay protocol: Test B: Inhibition of Rodent Gastric Secretion (pylorus-ligated rat)
- Assay type: in vivo
- conditions used: subcutaneous, 2 x 1.5 mg/kg (total 3.0 mg/kg), 4 hours after pyloric ligation
readout kind: Activity Value Test B (% decrease in acidity)

Example entries and their recorded answers appear below.
- compound: "O=C(O)CCCCCC[C@H]1C(=O)CC[C@@H]1/C=C/[C@@H](O)CCCCC1CCCC2CCCCC21 (relative stereo)"
  measured value: "0 (<26)"
- compound: "O=C(O)CCCCCC[C@H]1C(=O)CC[C@@H]1/C=C/[C@H](O)C1CC2CCC2C1 (mixture of isomers)"
  measured value: "0 (<26)"
- compound: "COC(=O)CCCCCC[C@@H]1[C@@H](/C=C/[C@@H](O)C2CC3CCC3C2)[C@H](O)C[C@H]1O (stereo partly drawn)"
  measured value: "2 (26-50, significant)"

Q) Form entry - test system: gastric secretion; read-out: Activity Value Test B (% decrease in acidity); compound: COC(=O)CCCCCC[C@H]1C(=O)C[C@@H](O)[C@@H]1/C=C/[C@@H](O)CCCCC1CCC2CCC1C2 (stereo partly drawn)
A) 0 (<26)

Q) Form entry - test system: gastric secretion; read-out: Activity Value Test B (% decrease in acidity); compound: COC(=O)CCCCCC[C@H]1C(=O)C[C@@H](O)[C@@H]1/C=C/[C@H](O)CCCCC1CCCC2CCCCC21 (stereo partly drawn)
A) 0 (<26)

* * *

// reported Activity Value Test D (ED50 mmHg, dose decreasing blood pressure by 50 mmHg) for each item listed
- Tested on: blood pressure
- assay protocol: Test D: Decrease in Normal Feline Blood Pressure and Heart Rate (anesthetized cat)
- Assay type: in vivo
- conditions used: intravenous, 0.01 to 10.0 mcg/kg, judged only on hypotension

Example entries and their recorded answers appear below.
- molecule: "COC(=O)CCCCCC[C@H]1C(=O)C[C@@H](O)[C@@H]1/C=C/[C@H](O)C1CC2CCC2C1 (stereo partly shown)"
  target of assay: "blood pressure"
  measured value: "2 (0.11 - 1.0)"
- molecule: "COC(=O)CCCCCC[C@H]1C(=O)C[C@@H](O)[C@@H]1/C=C/[C@H](O)CCCCC1CCC2CCC1C2 (stereo partly shown)"
  target of assay: "blood pressure"
  measured value: "0 (>10.0)"
- molecule: "O=C(O)CCCCCC[C@H]1C(=O)CC[C@@H]1/C=C/[C@H](O)C1CC2CCC2C1 (mixture of isomers)"
  target of assay: "blood pressure"
  measured value: "0 (>10.0)"

Q) Which Activity Value Test D (ED50 mmHg, dose decreasing blood pressure by 50 mmHg) value is on record for COC(=O)CCCCCC[C@H]1C(=O)C[C@@H](O)[C@@H]1/C=C/[C@@H](O)CCCCC1CCCC2CCCCC21 (stereo partly shown) ?
A) 0 (>10.0)

* * *

- Tested on: gastric secretion
- assay protocol: Test B: Inhibition of Rodent Gastric Secretion (pylorus-ligated rat)
- Type: in vivo
- conditions used: subcutaneous, 2 x 1.5 mg/kg (total 3.0 mg/kg), 4 hours after pyloric ligation
// reported Activity Value Test B (% decrease in acidity) for each item listed

Example entries and their recorded answers appear below.
- molecule: "COC(=O)CCCCCC[C@H]1C(=O)C=C[C@@H]1/C=C/[C@H](O)CCCCC1CCC2CCC1C2 (stereo partly shown)"
  target of assay: "gastric secretion"
  measured value: "0 (<26)"
- molecule: "COC(=O)CCCCCC[C@H]1C(=O)C=C[C@@H]1/C=C/[C@@H](O)CCCCC1CCC2CCC1C2 (stereo partly shown)"
  target of assay: "gastric secretion"
  measured value: "0 (<26)"
- molecule: "COC(=O)CCCCCC[C@H]1C(=O)C[C@@H](O)[C@@H]1/C=C/[C@H](O)CCCCC1CCC2CCC1C2 (stereo partly shown)"
  target of assay: "gastric secretion"
  measured value: "0 (<26)"
- molecule: "O=C(O)CCCCCC[C@H]1C(=O)CC[C@@H]1/C=C/[C@H](O)CCCCC1CCCC2CCCCC21 (relative stereo)"
  target of assay: "gastric secretion"
  measured value: "0 (<26)"
- molecule: "COC(=O)CCCCCC[C@H]1C(=O)C[C@@H](O)[C@@H]1/C=C/[C@H](O)C1CC2CCC2C1 (stereo partly shown)"
  target of assay: "gastric secretion"
  measured value: "4 (76-100)"

Now let's try a different one.
Q) Which Activity Value Test B (% decrease in acidity) value is on record for COC(=O)CCCCCC[C@H]1C(=O)C[C@@H](O)[C@@H]1/C=C/[C@@H](O)CCCCC1CCCC2CCCCC21 (stereo partly shown) ?
A) 0 (<26)

* * *

- Tested on: gastric secretion
- assay protocol: Test B: Inhibition of Rodent Gastric Secretion (pylorus-ligated rat)
- Format: in vivo
- conditions used: subcutaneous, 2 x 1.5 mg/kg (total 3.0 mg/kg), 4 hours after pyloric ligation
- Protocol: A procedure based on that described by Lipmann (J. Pharm. Pharmacol., 21:335 [ 1968]) was used to assess the influence of test compounds on gastric secretion. […] Four hours after pyloric ligation the animals were killed with ether, the cardias ligated and the stomachs removed. The volume of gastric secretion was measured and the contents centrifuged at 5000 rpm for 10 minutes. […]
readout kind: Activity Value Test B (% decrease in acidity)

- compound: "O=C(O)CCCCCC[C@H]1C(=O)CC[C@@H]1/C=C/[C@@H](O)C1CC2CCC2C1 (mixture of isomers) [TR-4097]"
  measured value: "2 (26-50, significant)"
- compound: "COC(=O)CCCCCC[C@@H]1[C@@H](/C=C/[C@@H](O)C2CC3CCC3C2)[C@H](O)C[C@@H]1O (stereo partly shown) [TR-4711]"
  measured value: "1 (26-50, not significant)"
- compound: "COC(=O)CCCCCC[C@H]1C(=O)C[C@@H](O)[C@@H]1/C=C/[C@@H](O)C1CC2CCC2C1 (stereo partly shown) [TR-4099]"
  measured value: "1 (26-50, not significant)"

Now let's try a different one.
Q) Form entry - test system: gastric secretion; read-out: Activity Value Test B (% decrease in acidity); compound: O=C(O)CCC/C=C\C[C@H]1C(=O)CC[C@@H]1/C=C/[C@@H](O)C1CC2CCC2C1 (mixture of isomers) [TR-4102]
A) 4 (76-100)
